Each recorded value in this set is attributed to paper PMC6516043.

# target.system: GmolCSP8-L30A (Grapholita molesta, UniProt A0A0M4FML8, L45A)
# Sequence (A0A0M4FML8 entry or part of it L45A): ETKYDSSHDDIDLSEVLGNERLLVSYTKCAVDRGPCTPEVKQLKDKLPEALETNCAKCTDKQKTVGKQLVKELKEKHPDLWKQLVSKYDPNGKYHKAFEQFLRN
# test: biochemical
# Type: binding
measured.endpoint: Ki
Record the result as number plus unit.

Which Ki value belongs to CCCCCCO ?
12.5 µM

* * *

# target.system: GmolCSP8-L30A (Grapholita molesta, UniProt A0A0M4FML8, L45A)
# test: biochemical
# Type: binding
# cond: mutant L30A; – = lost ability to bind; read-out: Ki (μM) L30A
measured.endpoint: Ki (µM)
Provide only the numeric value, understood in µM.

Which Ki value belongs to CCCCO ?
17.1

* * *

# target.system: rGmolCSP8 (Grapholita molesta)
# test: Fluorescence competitive binding assay (1-NPN displacement), wild-type
# cond: 2 μM rGmolCSP8 and 2 μM 1-NPN, pH 7.4; calculated from IC50; read-out: Ki
# Description: The fluorescence spectra were recorded using a fluorescence spectrophotometer (F-4500, Hitachi, Tokyo, Japan) in a 1 cm light path fluorimeter quartz cuvette with 10 nm slits for excitation and 20 nm slits for emission. […] The fluorescent probe was excited at 337 nm and emission spectra were recorded from 370 to 550 nm. […]
Provide the reported Ki of each item.
Provide only the numeric value, understood in µM.

Which Ki value belongs to CCCCCCCCCCCCO [1-dodecanol] ?
12.9

And what about the compound CCCCCCCO [1-heptanol] ?
6.2

And what about the compound CCCCO [1-butanol] ?
6.65

* * *

# target.system: rGmolCSP8 (Grapholita molesta, UniProt A0A0M4FML8)
# Sequence (A0A0M4FML8 entry or part of it): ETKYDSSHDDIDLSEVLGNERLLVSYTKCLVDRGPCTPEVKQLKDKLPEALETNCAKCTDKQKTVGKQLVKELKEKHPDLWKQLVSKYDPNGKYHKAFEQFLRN
# test: Fluorescence competitive binding assay (1-NPN displacement), wild-type
pKi: −log10 of the molar value.
measured.endpoint: pKi

Notebook entry, rGmolCSP8 (Grapholita molesta, UniProt A0A0M4FML8) assay: pKi of CCCCOC(C)=O [Butyl acetate] = ?
< 4.62

And what about the compound CCCCCCCCCCCCCCO ?
< 4.62

And what about the compound O=Cc1ccccc1 ?
< 4.62

* * *

# target.system: GmolCSP8-T27A (Grapholita molesta, UniProt A0A0M4FML8, T42A)
# Sequence (A0A0M4FML8 entry or part of it T42A): as the sequence (A0A0M4FML8 entry or part of it) above, with T27A counted along it
# test: biochemical
# Assay type: binding
pIC50: −log10 of the molar value.
measured.endpoint: pIC50

Which pIC50 value belongs to CCCCCO ?
< 4.62

And what about the compound CCCCCCO ?
< 4.62

* * *

# target.system: GmolCSP8-T27A (Grapholita molesta, UniProt A0A0M4FML8, T42A)
# test: biochemical
# Format: binding
# cond: mutant T27A; ligands up to 24 μM; read-out: ligand concentration displacing 50% 1-NPN from CSP8-T27A/1-NPN complex
measured.endpoint: IC50

Which IC50 value belongs to CCCCO [1-butanol] ?
> 24 µM

* * *

Provide the reported pIC50 of each item.
# target.system: rGmolCSP8 (Grapholita molesta)
# test: Fluorescence competitive binding assay (1-NPN displacement), wild-type
pIC50: −log10 of the molar value.

Which pIC50 value belongs to CCCCCCCCCCCCCCO [1-tetradecanol] ?
< 4.62

And what about the compound CCCCOC(C)=O [Butyl acetate] ?
< 4.62

And what about the compound O=Cc1ccccc1 [Benzaldehyde] ?
< 4.62

And what about the compound CCCCCCO [1-hexanol] ?
5.65

* * *

# target.system: GmolCSP8-L80A (Grapholita molesta, UniProt A0A0M4FML8, L95A)
# Sequence (A0A0M4FML8 entry or part of it L95A): as the sequence (A0A0M4FML8 entry or part of it) above, with L80A counted along it
# test: biochemical
# Assay type: binding
measured.endpoint: pKi
In simple prose, pKi is minus the logarithm base ten of a concentration in moles per litre.

Which pKi value belongs to CCCCCCO ?
5.74

And what about the molecule CCCCCCCO ?
5.22

And what about the molecule CCCCCCCCCCO ?
5.20

And what about the molecule CCCCCO ?
5.18

* * *

# target.system: GmolCSP8-V40A (Grapholita molesta, UniProt A0A0M4FML8, V55A)
# Sequence (A0A0M4FML8 entry or part of it V55A): as the sequence (A0A0M4FML8 entry or part of it) above, with V40A counted along it
# test: biochemical
# Type: binding
measured.endpoint: Ki (µM)
Provide only the numeric value, understood in µM.

Which Ki value belongs to CCCCCCCO ?
9.68

And what about the molecule CCCCCCO ?
2.67

And what about the molecule CCCCCO ?
12.4

And what about the molecule CCCCCCCCCCO ?
7.02

* * *

# target.system: GmolCSP8-T27A (Grapholita molesta, UniProt A0A0M4FML8, T42A)
# test: biochemical
# Format: binding
# cond: mutant T27A; – = did not displace 50% 1-NPN at ligand up to 24 μM; read-out: Ki (μM) T27A
measured.endpoint: Ki

Which Ki value belongs to CCCCO [1-butanol] ?
> 24 µM

* * *

# target.system: GmolCSP8-L80A (Grapholita molesta, UniProt A0A0M4FML8, L95A)
# test: biochemical
# Assay type: binding
# cond: mutant L80A; read-out: Ki (μM) L80A
measured.endpoint: Ki (µM)
Provide only the numeric value, understood in µM.

Which Ki value belongs to CCCCO ?
6.75

* * *

# target.system: rGmolCSP8 (Grapholita molesta, UniProt A0A0M4FML8)
# test: Fluorescence competitive binding assay (1-NPN displacement), wild-type
# cond: 2 μM rGmolCSP8 and 2 μM 1-NPN, 20 mM Tris-HCl pH 7.4; read-out: IC50
pIC50: −log10 of the molar value.
measured.endpoint: pIC50

Which pIC50 value belongs to CCC/C=C\CCCCCCCOC(C)=O [(Z)-8-dodecenyl acetate] ?
< 4.62

And what about the compound CCCCCCCCCC [Decane] ?
< 4.62

And what about the compound CCCCCCC(=O)OCC [Ethyl heptanoate] ?
< 4.62

And what about the compound CCCCCCCCC=O [Nonanal] ?
< 4.62

And what about the compound CCCCCCC=O [Heptanal] ?
< 4.62

And what about the compound CCCCO [1-butanol] ?
5.14

* * *

Provide the reported Ki of each item.
# target.system: GmolCSP8-T27A (Grapholita molesta, UniProt A0A0M4FML8, T42A)
# test: biochemical
# Format: binding
# cond: read-out: Ki (μM) T27A; mutant T27A; – = did not displace 50% 1-NPN at ligand up to 24 μM

Notebook entry, GmolCSP8-T27A (Grapholita molesta, UniProt A0A0M4FML8, T42A) assay: Ki of CCCCCO = ?
> 24 µM

And what about the molecule CCCCCCO ?
> 24 µM

* * *

# target.system: rGmolCSP8 (Grapholita molesta, UniProt A0A0M4FML8)
# test: Fluorescence competitive binding assay (1-NPN displacement), wild-type
# cond: wild-type rGmolCSP8, pH 7.4
measured.endpoint: binding to rGmolCSP8 (in words)

// solved cases for binding to rGmolCSP8 (in words) follow
>>> print(df.to_string())
                                   compound                measured_endpoint     observed
0         CCCCCC(=O)OCCCC [Butyl hexanoate]  binding to rGmolCSP8 (in words)  cannot bind
1                               N#Cc1ccccc1  binding to rGmolCSP8 (in words)  cannot bind
2                                 CCCCCCC=O  binding to rGmolCSP8 (in words)  cannot bind
3  CC/C=C\CCOC(C)=O [Cis-3-hexenyl acetate]  binding to rGmolCSP8 (in words)  cannot bind
4      CC1=CCC2CC1C2(C)C (stereo not shown)  binding to rGmolCSP8 (in words)  cannot bind
5                               O=Cc1ccccc1  binding to rGmolCSP8 (in words)  cannot bind
6               CCC/C=C/C=O [(E)-2-hexenal]  binding to rGmolCSP8 (in words)  cannot bind

Which binding to rGmolCSP8 (in words) value belongs to CCCCCC=O ?
cannot bind
